B1: CHCHD6 (parent)
chain: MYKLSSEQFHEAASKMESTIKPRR

Variants of: B1
procedure.details: protein stability index of a GFP-peptide fusion (GPS, HEK-293T) (PSI 1-6); higher = more stable;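 note: lentivirally expressed fusions sorted by FACS into six bins by GFP to DsRed ratio, PSI derived from sequencing read proportions per bin multiplied by bin number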
conditions.used: c terminus: a fixed tail appended
measured.property: protein stability index
One number for each entry.

# count of solved cases: 2
K3F	2.55
Y2I	3.98

For each entry beneath this line, provide reported protein stability index.
1. E11D
2. Q8T
3. M16G
4. S18H

Ans:
[3.65, 4.16, 3.77, 4.51]

For each entry beneath this line, provide reported protein stability index.
1. S5M
2. T19G
3. F9N
4. E7C

Ans:
1: 3.87; 2: 3.76; 3: 4.64; 4: 3.29

For each entry beneath this line, provide reported protein stability index.
1. F9R
2. S18M
3. A12M
4. E7A

Ans:
[4.25, 3.31, 3.14, 3.6]

Where these numbers come from: the supplement of paper PMC10567573
